Attribution: ChEMBL document CHEMBL1129630

Give measured Kd for each item. Keep answers brief.
measurement target: Retinoic acid receptor alpha (Mus musculus)
Sequence (P11416 whole entry): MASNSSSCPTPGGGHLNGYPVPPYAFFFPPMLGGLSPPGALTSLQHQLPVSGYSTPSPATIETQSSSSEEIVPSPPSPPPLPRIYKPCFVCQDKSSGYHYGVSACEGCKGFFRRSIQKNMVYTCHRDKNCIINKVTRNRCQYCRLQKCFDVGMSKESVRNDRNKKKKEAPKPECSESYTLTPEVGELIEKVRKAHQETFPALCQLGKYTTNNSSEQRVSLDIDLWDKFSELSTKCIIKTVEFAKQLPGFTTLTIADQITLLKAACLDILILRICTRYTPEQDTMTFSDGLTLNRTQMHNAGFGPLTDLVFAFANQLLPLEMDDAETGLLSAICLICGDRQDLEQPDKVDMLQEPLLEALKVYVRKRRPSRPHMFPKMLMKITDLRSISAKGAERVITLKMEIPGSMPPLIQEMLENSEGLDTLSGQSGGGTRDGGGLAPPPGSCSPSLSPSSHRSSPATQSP
test description: Dissociation constant for binding to Retinoic acid receptor alpha
Assay type: single protein
Numeric only. Scale: µM

What the record says about CC1(C)CCC(C)(C)c2cc(Sc3ccc(C(=O)O)cc3)ccc21 : Kd is 4.08

What the record says about Cc1cc2c(cc1Sc1ncc(C(=O)O)s1)C(C)(C)CCC2(C)C : Kd is 1

* * *

measurement target: Retinoic acid receptor RXR-alpha (Homo sapiens)
Sequence (P19793 whole entry): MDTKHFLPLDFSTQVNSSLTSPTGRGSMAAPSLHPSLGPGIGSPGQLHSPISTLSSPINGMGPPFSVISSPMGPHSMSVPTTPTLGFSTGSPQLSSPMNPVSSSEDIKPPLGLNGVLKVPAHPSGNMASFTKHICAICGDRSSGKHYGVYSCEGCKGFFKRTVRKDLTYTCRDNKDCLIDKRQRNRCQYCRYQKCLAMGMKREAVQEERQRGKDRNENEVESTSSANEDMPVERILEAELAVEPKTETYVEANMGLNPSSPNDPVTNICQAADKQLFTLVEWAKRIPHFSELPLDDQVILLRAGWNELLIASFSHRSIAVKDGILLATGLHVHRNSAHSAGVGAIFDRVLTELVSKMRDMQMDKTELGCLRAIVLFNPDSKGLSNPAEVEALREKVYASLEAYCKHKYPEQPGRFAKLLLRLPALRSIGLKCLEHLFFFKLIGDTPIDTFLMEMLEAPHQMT
test description: Transcriptional activation of Retinoid X receptor RXR alpha
Design: species or system Cercopithecidae
observed property: pEC50
Expect pEC50 as a plain number equal to -log10 of the molar concentration.

What the record says about CC1(C)CCC(C)(C)c2cc(Sc3ccc(C(=O)O)cc3)ccc21 : pEC50 is 6.11
